The measured values listed here are drawn from BindingDB's records for doi:10.7270/Q2NZ862K.

Target protein (sequence): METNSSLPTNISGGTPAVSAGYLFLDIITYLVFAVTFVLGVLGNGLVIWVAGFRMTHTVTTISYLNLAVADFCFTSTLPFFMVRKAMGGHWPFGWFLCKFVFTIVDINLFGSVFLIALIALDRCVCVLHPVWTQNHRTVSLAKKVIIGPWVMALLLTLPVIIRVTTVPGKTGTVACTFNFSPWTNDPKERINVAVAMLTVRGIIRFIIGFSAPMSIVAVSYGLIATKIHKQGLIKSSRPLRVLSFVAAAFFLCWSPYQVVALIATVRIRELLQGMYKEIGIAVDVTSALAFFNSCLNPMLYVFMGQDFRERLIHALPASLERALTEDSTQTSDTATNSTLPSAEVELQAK
Metric: pKi
Answers are plain numbers, as −log10 of the molar value.

Solved cases (2 shown):
Compound	Metric	Quantitative readout
COC(=O)c1[nH]c(C)c(C(=O)C2C(=O)C(=O)N(CCN3CCOCC3)C2c2cccnc2)c1C (stereo unspecified)	pKi	4.87
CCOc1ccc(C2C(C(=O)c3ccco3)C(=O)C(=O)N2CCCn2ccnc2)cc1 (stereo unspecified)	pKi	5.19

Give pKi for all compounds that follow.
1. CCCOc1ccc(C2C(C(=O)c3ccc(C)o3)C(=O)C(=O)N2CCCn2ccnc2)cc1 (stereo unspecified)
2. COCCCN1C(=O)C(=O)C(C(=O)c2ccccc2)C1c1ccc2c(c1)OCO2 (stereo unspecified)
3. CCOc1ccc(C(=O)C2C(=O)C(=O)N(c3nc(C)c(C)s3)C2c2ccco2)cc1 (stereo unspecified)
4. CCOc1cc(C2C(C(=O)c3ccc(C)o3)C(=O)C(=O)N2CCc2ccccc2)ccc1O (stereo unspecified)

Response line:
1. 5.05
2. 4.71
3. 4.42
4. 4.70
